Target: T1, mouse CCR8 (mouse, UniProt P56484 1-353)
T1 construct: also called mCCR8
T1 sequence: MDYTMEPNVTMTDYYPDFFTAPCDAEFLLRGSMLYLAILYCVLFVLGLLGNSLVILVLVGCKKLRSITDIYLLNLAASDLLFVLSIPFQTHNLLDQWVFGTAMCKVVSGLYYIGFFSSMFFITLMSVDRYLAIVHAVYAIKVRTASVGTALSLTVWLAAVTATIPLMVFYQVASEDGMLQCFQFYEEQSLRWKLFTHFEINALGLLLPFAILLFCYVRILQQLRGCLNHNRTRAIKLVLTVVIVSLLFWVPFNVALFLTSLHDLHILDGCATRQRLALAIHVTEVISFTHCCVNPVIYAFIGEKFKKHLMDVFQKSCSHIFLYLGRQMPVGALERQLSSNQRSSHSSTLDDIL
Test: flow cytometry, transfected Expi293 cells

BINDER	binding result
8F7 (antibody, V domains shown, mouse hybridoma antibody) VH: EVQLVESGGRLVQPKRSLKLSCAASGFTFNPYAMYWIRQAPGQGLEWVARIRSKSNNYATYYADSVKDRFTISRDDSQSMLYLQMNNLKTEDTAMYYCVRGHQGTMDYWGQGTSVTVSS VL: DIVMTQAAPSVPVTPGESVSISCRSSKSLLHSNGNTYLYWFLQRPGQSPQLLTYRMSNLASGVPDRFSGSGSGTAFTLRISRVEAEDVGVYYCMQHLEYPFTFGGGTKLEIKR	no binding
27G1 (antibody, V domains shown, mouse hybridoma antibody) VH: EVQLVESGGRLVQPKGSLKLSCAASGFAFNTYAMYWIRQAPGKGLEWVARIRSKSNNYATYYADSVKDRFTISRDDSQSMLYLQMNNLKTEDTAMYYCVRARFYYSDYGYAMDYWGQGTSVTVSS VL: DIVMTQAAPSVPVTPGESVSISCRSSKSLLHSNGNTYLYWFLQRPGQSPQLLIYRMSNLASGVPDRFSGSGSGTAFTLRISRVEAEDVGVYYCMQHLEYPLTFGAGTKLELKR	no binding
10A11 (antibody, V domains shown, mouse hybridoma antibody; also called m10A11; clone No. 10A11) VH: EVQLVESGGRLVQPKGSLKLSCAASGFAFNTYALYWIRQAPGKGLEWVARIRSKSNNYATYYADSVKDRFTISRDDSQSMLYLQMNNLKTEDTAMYYCVRARFYYSDYGYAMDYWGQGTSVTVSS VL: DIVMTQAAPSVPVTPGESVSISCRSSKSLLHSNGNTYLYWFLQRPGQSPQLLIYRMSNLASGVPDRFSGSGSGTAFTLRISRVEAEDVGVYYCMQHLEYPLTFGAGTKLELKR	no binding
1H4 (antibody, V domains shown, mouse hybridoma antibody) VH: EVQLVESGGRLVQPKGSLKLSCAASGFTFNTYAMYWIRQAPGKGLEWVARIRSKSNNYATYYADSVKDRFTISRDDSQSMLYLQMNNLKTEDTAMYYCVRARFYYSDYGYAMDYWGQGTSVTVSS VL: DIVMTQAAPSVPVTPGESVSISCRSSKSLLHSNGNTYLYWFLQRPGQSPQLLIYRMSNLASGVPDRFSASGSGTAFTLRISRVEAEDVGVYYCMQHLEYPLTFGAGTKLELKR	no binding
